System: 935938-334-R-J1-PDC spheroids with HUVEC/MSC, viability;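 also: compound exposure lasted seven days before viability was read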
ASSAY_DETAILS: Anticancer human tumor 935938-334-R-J1-PDC patient-derived small intestine adenocarcinoma cell line growth inhibition [PI3K]
MEASUREMENT_CONTEXT: second compound 0.1 µM; first compound 0.0316 µM; hits give low values
Excerpt: Combinatorial screen of targeted agents with the PI3K inhibitors inavolisib, alpelisib, duvelisib, and copanlisib in multi-cell type tumor spheroids A high-throughput screen of multi-cell type tumor spheroids was designed to identify active combinations of targeted small molecules and PI3K pathway inhibitors. […] Compounds. […] If the clinical Cmax for an agent had not been determined, the highest concentration tested was 10 microM. […]
Mark fulfilled for viability, T/C under 40%, not fulfilled if at or over.

{"columns": ["COMPOUND", "CLASS"],
 "data": [
  ["C=CC(=O)N1CCN(c2nc(=O)n(-c3c(C)ccnc3C(C)C)c3nc(-c4c(O)cccc4F)c(F)cc23)C(C)C1 (stereo not given) + COc1c(OCCCN2CCOCC2)ccc2c3n(c(=NC(=O)c4cnc(N)nc4)nc12)CCN3", "not fulfilled"],
  ["CCN1CCN(Cc2ccc(Nc3ncc(F)c(-c4cc(F)c5nc(C)n(C(C)C)c5c4)n3)nc2)CC1 + COc1c(OCCCN2CCOCC2)ccc2c3n(c(=NC(=O)c4cnc(N)nc4)nc12)CCN3", "fulfilled"],
  ["CNC(=O)c1ccc(N2C(=S)N(c3ccc(C#N)c(C(F)(F)F)c3)C(=O)C2(C)C)cc1F + COc1c(OCCCN2CCOCC2)ccc2c3n(c(=NC(=O)c4cnc(N)nc4)nc12)CCN3", "not fulfilled"],
  ["CC1(C)CCC(Nc2ncc(C(F)(F)F)c(-c3c[nH]c4c(P(C)(C)=O)c(C#N)ccc34)n2)CN1 (stereo not given) + CC(Nc1ncnc2nc[nH]c12)c1cc2cccc(Cl)c2c(=O)n1-c1ccccc1", "not fulfilled"],
  ["CC(=O)c1c(C)c2cnc(Nc3ccc(N4CCNCC4)cn3)nc2n(C2CCCC2)c1=O + CC(Nc1ccc2c(c1)OCCn1cc(N3C(=O)OCC3C(F)F)nc1-2)C(N)=O", "not fulfilled"],
  ["CC1(C)CCC(Nc2ncc(C(F)(F)F)c(-c3c[nH]c4c(P(C)(C)=O)c(C#N)ccc34)n2)CN1 (stereo not given) + COc1c(OCCCN2CCOCC2)ccc2c3n(c(=NC(=O)c4cnc(N)nc4)nc12)CCN3", "fulfilled"],
  ["CC(C)NCC(C(=O)N1CCN(c2ncnc3c2C(C)CC3O)CC1)c1ccc(Cl)cc1 (stereo not given) + CC(Nc1ccc2c(c1)OCCn1cc(N3C(=O)OCC3C(F)F)nc1-2)C(N)=O", "not fulfilled"],
  ["Cn1ncc(Cl)c1-c1cc(C(=O)NC(CN)Cc2cccc(F)c2)sc1Cl (stereo not given) + COc1c(OCCCN2CCOCC2)ccc2c3n(c(=NC(=O)c4cnc(N)nc4)nc12)CCN3", "not fulfilled"],
  ["CC1(C)CCC(CN2CCN(c3ccc(C(=O)NS(=O)(=O)c4ccc(NCC5CCOCC5)c([N+](=O)[O-])c4)c(Oc4cnc5[nH]ccc5c4)c3)CC2)=C(c2ccc(Cl)cc2)C1 + CC(Nc1ccc2c(c1)OCCn1cc(N3C(=O)OCC3C(F)F)nc1-2)C(N)=O", "not fulfilled"],
  ["Cn1ncnc1[C@H]1c2n[nH]c(=O)c3cc(F)cc(c23)N[C@@H]1c1ccc(F)cc1 + COc1c(OCCCN2CCOCC2)ccc2c3n(c(=NC(=O)c4cnc(N)nc4)nc12)CCN3", "not fulfilled"]
]}

Data provenance: PubChem BioAssay AID1963966
